molecular target: human glucagon receptor (human, UniProt P47871); test: cell-based or functional assay
Starred links: 1 amine or outer side, 2 acyl side, 3 side chain; linkers in the order of their positions; H or OH if unused. Non-standard residues stand in square brackets, D forms with d. Groups on a side chain read outwards from the residue. No end group written: not given here. *: point of attachment. C20 diacid = O=C(O)CCCCCCCCCCCCCCCCCCC(=O)*; C18 diacid = O=C(O)CCCCCCCCCCCCCCCCC(=O)*; γGlu = O=C(O)[C@H](CCC(=O)[*:2])N[*:1]; αMeF = C[C@](N)(Cc1ccccc1)C(=O)O; PEG4 = NCCOCCOCCOCCOCCC(=O)O; AEEA = NCCOCCOCC(=O)O; Aib = CC(C)(N)C(=O)O
Heads up, the class ranges for hGluc-R EC50 (pM) are one: < 30 pM; two: ≥ 30 pM and < 90 pM; three: ≥ 90 pM

{"binder": "H[Aib]HGS[αMeF]TSDVSK[αMeF]LDSRAAK([AEEA-γGlu-C18 diacid])D[αMeF]VQ[Aib]IANT-NH2 [Peptide 262]", "categoryLabel": "one"}
{"binder": "H[Aib]HGS[αMeF]TSDVSK[αMeF]LDSRAAK([AEEA-AEEA-C18 diacid])D[αMeF]VQ[Aib]IANT-NH2 [Peptide 272]", "categoryLabel": "one"}
{"binder": "H[Aib]HGS[αMeF]TSDVSK[αMeF]LDSRAAKD[αMeF]VQ[Aib]IANT-NH2 (not fully specified (residue 20)) [Peptide 232]", "categoryLabel": "three"}
{"binder": "H[Aib]HGS[αMeF]TSDVSK[αMeF]LDSRAAK([AEEA-γGlu-AEEA-γGlu-C20 diacid])D[αMeF]VQ[Aib]IANT-NH2 [Peptide 266]", "categoryLabel": "three"}
{"binder": "H[Aib]HGS[αMeF]TSDVSK[αMeF]LDSRAAK([AEEA-γGlu-γGlu-C18 diacid])D[αMeF]VQ[Aib]IANT-NH2 [Peptide 274]", "categoryLabel": "two"}
{"binder": "H[Aib]HGS[αMeF]TSDVSK[αMeF]LDSRAAK([AEEA-AEEA-γGlu-C18 diacid])D[αMeF]VQWIANT-NH2 [Peptide 288]", "categoryLabel": "one"}
{"binder": "H[Aib]HGS[αMeF]TSDVSK[αMeF]LDSRAAK([AEEA-γGlu-AEEA-C18 diacid])D[αMeF]VQ[Aib]IANT-NH2 [Peptide 259]", "categoryLabel": "two"}
{"binder": "H[Aib]HGS[αMeF]TSDVSK[αMeF]LDSRAAK([PEG4-γGlu-γGlu-C18 diacid])D[αMeF]VQ[Aib]IANT-NH2 [Peptide 263]", "categoryLabel": "two"}
